- subject of test: T1, human CXCR5 (human, UniProt P32302 1-372)
- T1 construct: also called hCXCR5; C-X-C chemokine receptor type 5
- T1 sequence: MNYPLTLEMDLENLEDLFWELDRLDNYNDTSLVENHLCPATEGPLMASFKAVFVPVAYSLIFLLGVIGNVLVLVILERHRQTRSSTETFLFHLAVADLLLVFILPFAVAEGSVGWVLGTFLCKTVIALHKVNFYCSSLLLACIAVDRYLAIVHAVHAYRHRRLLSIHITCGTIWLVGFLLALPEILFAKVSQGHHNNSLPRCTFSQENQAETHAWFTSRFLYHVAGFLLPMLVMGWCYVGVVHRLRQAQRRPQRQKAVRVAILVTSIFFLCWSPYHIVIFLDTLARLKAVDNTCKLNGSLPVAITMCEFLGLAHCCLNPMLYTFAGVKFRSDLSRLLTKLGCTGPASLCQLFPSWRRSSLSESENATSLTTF
- assay info: flow cytometry, human PBMC B cells
pEC50: −log10 of the molar value.
Short version: pEC50 at least 10 is Met, less is Not met.

Reported pEC50 at or above 10? Afucosyl Chimeric 11G2 (antibody, human IgG1, kappa, V domains shown, afucosylated Fc glycan (Asn297), made in Potelligent CHOK1SV cells) VH: EVKLVESGGGLVQPGGSLRLSCATSGFTFTDFYMSWVRQPPGRALEWLGFIRNKANGYTTEYSASVKGRFTISRDNSQSILYLQMNTLRAGDSATYYCVRVYGSTLHYWGQGTILTVSS VL: DVVVTQSPDSLAVSLGQRATISCRASESVEYHGTSLMHWYQQKPGQPPKLLIYAASNVESGVPARFSGSGSGTDFSLNIHPVEEGDIAMYFCQQSRKVPWTFGGGTKLEIKR Met

Threshold query (pEC50 >= 10) on Humanized 11G2 153/156 (antibody, human IgG1, V domains shown, also called h11G2 VH (XC156)/VL (XC153)) VH: EVQLVESGGGLVQPGGSLRLSCATSGFTFTDFYMSWVRQAPGKGLEWVGFIRNKANGYTTEYSASVKGRFTISRDNAKNSLYLQMNSLRAEDTAVYYCVRVYGSTLHYWGQGTLVTVSS VL: DIQMTQSPSSLSASVGDRVTITCRASESVEYHGTSLMHWYQQKPGKAPKLLIYAASNVESGVPSRFSGSGSGTDFTLTISSLQPEDFATYFCQQSRKVPWTFGQGTKVEIK Met

Identify whether the reported pEC50 of the following binder is 10 or greater: 11A7 (reference antibody) (antibody, human IgG1, lambda, V domains shown, fucosylated) VH: EVQLVESGGGLVQPGGSLRLSCAASGFTVSSNYMSWVRQAPGKGLEWVSVIYSGGSTYYADSVKGRFTISRHNSKNTLYLQMNSLRAEDTAVYYCARGYVVWGQGTLVTVSS VL: QPVLTQPPSVSKDLRQTATLTCTGNSNNVGNQGATWLQQHQGHPPKLLSYKNNNRPSGISERFSASRSGNTASLTITGLQPEDEADYYCSAWDSSLSAWVFGGGTQLTVLG Not met

Has Humanized 11G2 154/157 (antibody, human IgG1, V domains shown, also called h11G2 VH (XC157)/VL (XC154)) VH: EVQLVESGGGLVQPGGSLRLSCATSGFTFTDFYMSWVRQAPGKGLEWVGFIRNKANGYTTEYSASVKGRFTISRDNAKSSLYLQMNSLRAEDTAVYYCVRVYGSTLHYWGQGTLVTVSS VL: DIQMTQSPSSLSASVGDRVTITCRASESVEYHGTSLMHWYQQKPGKAPKLLIYAASNVESGVPSRFSGSGSGTDFTLTISSLQPEDFATYYCQQSRKVPWTFGQGTKVEIK a recorded pEC50 greater than or equal to 10? Met

In plain terms: is recorded pEC50 at least 10 for Humanized 11G2 153/155 (antibody, human IgG1, V domains shown, also called h11G2 VH (XC155)/VL (XC153)) VH: EVQLVESGGGLVQPGGSLRLSCAASGFTFTDFYMSWVRQAPGKGLEWVGFIRNKANGYTTEYSASVKGRFTISRDNAKNSLYLQMNSLRAEDTAVYYCARVYGSTLHYWGQGTLVTVSS VL: DIQMTQSPSSLSASVGDRVTITCRASESVEYHGTSLMHWYQQKPGKAPKLLIYAASNVESGVPSRFSGSGSGTDFTLTISSLQPEDFATYFCQQSRKVPWTFGQGTKVEIK ? Met
